B1: 6NMW (parent)
chain: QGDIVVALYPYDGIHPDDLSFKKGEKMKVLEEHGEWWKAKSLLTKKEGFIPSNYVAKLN

- Variants of: B1
- test_description: folding stability dG (cDNA display proteolysis); higher = more stable
- stated_conditions: PBS, room temperature
Classify on folding stability dG using class A (below 3 kcal/mol), class B (3 kcal/mol to below 4 kcal/mol), class C (4 kcal/mol or more)

Exam item: Input "H15K" ; output its category
Marked response: class B

Exam item: Input "K26A" ; output its category
Marked response: class A

Exam item: Input "E47L" ; output its category
Marked response: class A

New cases:
Exam item: Input "F49R" ; output its category
Marked response: class B

Exam item: Input "Q1R" ; output its category
Marked response: class B

Exam item: Input "W37F" ; output its category
Marked response: class C

Exam item: Input "L43H" ; output its category
Marked response: class B

Exam item: Input "T44N" ; output its category
Marked response: class A

Exam item: Input "P10V" ; output its category
Marked response: class A

Exam item: Input "K28T" ; output its category
Marked response: class B

Exam item: Input "K26W" ; output its category
Marked response: class C

Exam item: Input "S20F" ; output its category
Marked response: class A

Exam item: Input "L42R" ; output its category
Marked response: class A

Exam item: Input "H33W" ; output its category
Marked response: class B
